test system: recombinant NL-Rluc virus; experiment: Inhibition of HIV replication (NL-Rluc virus in MT-2 cells, luciferase readout); assay type: cell-based; conditions: Human immunodeficiency virus 1, MT2, 120 h
We'd kindly ask you to apply these EC50 classes: lower range (below 5 nM), middle range (5 nM to below 10 nM), upper range (10 nM or more)

* Cc1nc2cc3nn2c(c1[C@H](OC(C)(C)C)C(=O)O)N1CCC(C)(CC/C=C/COc2ccccc2Cc2cnc-3s2)CC1 [Example 24] | upper range
* Cc1nc2cc3nn2c(c1[C@H](OC(C)(C)C)C(=O)O)N1CCC(C)(CC1)OCCCCCOc1ccccc1Cc1cnc-3s1 [Example 9] | lower range
* Cc1nc2cc3nn2c(c1[C@H](OC(C)(C)C)C(=O)O)N1CCC(C)(CC/C=C/COc2cccc(c2)Cc2cnn-3c2)CC1 [Example 37] | lower range
* Cc1nc2cc3nn2c(c1[C@H](OC(C)(C)C)C(=O)O)N1CCC(C)(CC1)OCCCCOc1c(F)cccc1Cc1cnn-3c1 [Example 28] | upper range
* Cc1nc2cc3nn2c(c1[C@H](OC(C)(C)C)C(=O)O)N1CCC(C)(CC/C=C/C[C@@H](C)Oc2cc(F)ccc2Cc2cnc-3s2)CC1 [Example 19] | upper range
* Cc1nc2cc3nn2c(c1[C@H](OC(C)(C)C)C(=O)O)N1CCC(C)(CCCCCCc2ccccc2Cc2cnc-3s2)CC1 [Example 14] | upper range
* Cc1nc2cc3nn2c(c1[C@H](OC(C)(C)C)C(=O)O)N1CCC(C)(CC1)OC/C=C/COc1ccccc1Cc1cnc-3o1 [Example 10] | lower range
* Cc1nc2cc3nn2c(c1[C@H](OC(C)(C)C)C(=O)O)N1CCC(C)(C/C=C/CCc2cc(F)ccc2Cc2cnc-3s2)CC1 (single isomer, unassigned) [Example 18] | upper range
* Cc1nc2cc3nn2c(c1[C@H](OC(C)(C)C)C(=O)O)N1CCC(C)(CC/C=C/CCc2cc(F)ccc2Cc2cnc-3s2)CC1 (single isomer, unassigned) [Example 17] | upper range
* Cc1nc2cc3nn2c(c1[C@H](OC(C)(C)C)C(=O)O)N1CCC(C)(CC1)OC/C=C/CCOc1ccccc1Cc1cnc-3s1 [Example 8] | middle range
* Cc1nc2cc3nn2c(c1[C@H](OC(C)(C)C)C(=O)O)N1CCC(C)(CC1)OCCCCOc1ccccc1Cc1cnc-3o1 [Example 6] | lower range
* Cc1nc2cc3nn2c(c1[C@H](OC(C)(C)C)C(=O)O)N1CCC(C)(C/C=C/CCc2ccc(F)cc2Cc2cnc-3s2)CC1 (single isomer, unassigned) [Example 23] | middle range

====

Measured pEC50, listed per entry for reference.
system: recombinant NL-Rluc virus; assay: Inhibition of HIV replication (NL-Rluc virus in MT-2 cells, luciferase readout); format: cell-based; settings: Human immunodeficiency virus 1, MT2, 120 h
pEC50: −log10 of the molar value.
measureName: pEC50

- Cc1nc2cc3nn2c(c1[C@H](OC(C)(C)C)C(=O)O)N1CCC(C)(CCCCCOc2cccc(c2)Cc2cnn-3c2)CC1: 8.22
- Cc1nc2cc3nn2c(c1[C@H](OC(C)(C)C)C(=O)O)N1CCC(C)(CCCCCCOc2ccccc2Cc2cnn-3c2)CC1: 7.85
- Cc1nc2cc3nn2c(c1[C@H](OC(C)(C)C)C(=O)O)N1CCC(C)(/C=C/CCCc2cc(F)ccc2Cc2cnc-3s2)CC1 (single isomer, unassigned): 7.92
- Cc1nc2cc3nn2c(c1[C@H](OC(C)(C)C)C(=O)O)N1CCC(C)(CC1)OCCCCOc1ccc(F)cc1Cc1cnn-3c1: 8.70
- Cc1nc2cc3nn2c(c1[C@H](OC(C)(C)C)C(=O)O)N1CCC(C)(/C=C/C=C/CCc2ccccc2Cc2cnc-3s2)CC1: 8.10
- Cc1nc2cc3nn2c(c1[C@H](OC(C)(C)C)C(=O)O)N1CCC(C)(CC1)OC/C=C\CCOc1ccccc1Cc1cnn-3c1: 8.22
- Cc1nc2cc3nn2c(c1[C@H](OC(C)(C)C)C(=O)O)N1CCC(C)(CC1)OCCCCCc1cccc(c1)Cc1cnc-3s1: 7.66
- Cc1nc2cc3nn2c(c1[C@H](OC(C)(C)C)C(=O)O)N1CCC(C)(CC1)OC/C=C/Cc1ccccc1Cc1cnc-3s1 (single isomer, unassigned): 8.70
- Cc1nc2cc3nn2c(c1[C@H](OC(C)(C)C)C(=O)O)N1CCC(C)(CC1)OC/C=C/COc1ccc(F)cc1Cc1cnn-3c1: 8.70
- Cc1nc2cc3nn2c(c1[C@H](OC(C)(C)C)C(=O)O)N1CCC(C)(/C=C/CCCCc2ccccc2Cc2cnc-3s2)CC1: 7.92
- Cc1nc2cc3nn2c(c1[C@H](OC(C)(C)C)C(=O)O)N1CCC(C)(CC/C=C/COc2ccccc2Cn2cc-3cn2)CC1: 8.52
- Cc1nc2cc3nn2c(c1[C@H](OC(C)(C)C)C(=O)O)N1CCC(C)(CC1)OC/C=C/COc1c(F)cccc1Cc1cnn-3c1: 7.32

====

Listed below: pEC50 values for each entry.
tested on: recombinant NL-Rluc virus; test: Inhibition of HIV replication (NL-Rluc virus in MT-2 cells, luciferase readout); format: cell-based; settings: Human immunodeficiency virus 1, MT2, 120 h
pEC50: −log10 of the molar value.
measureName: pEC50

* Cc1nc2cc3nn2c(c1[C@H](OC(C)(C)C)C(=O)O)N1CCC(C)(CC/C=C/CCc2ccc(F)cc2Cc2cnc-3s2)CC1 (single isomer, unassigned) [Example 21] | 7.89
* Cc1nc2cc3nn2c(c1[C@H](OC(C)(C)C)C(=O)O)N1CCC(C)(CC/C=C\COc2cccc(c2)Cc2cnn-3c2)CC1 [Example 38] | 7.66
* Cc1nc2cc3nn2c(c1[C@H](OC(C)(C)C)C(=O)O)N1CCC(C)(/C=C/CCCCc2cc(F)ccc2Cc2cnc-3s2)CC1 (single isomer, unassigned) [Example 15] | 7.89

====

tested on: recombinant NL-Rluc virus; assay: Inhibition of HIV replication (NL-Rluc virus in MT-2 cells, luciferase readout); assay type: cell-based; conditions: Human immunodeficiency virus 1, MT2, 120 h
Threshold check on EC50: strictly below 8 nM is Satisfied; on or above 8 nM is Not satisfied.

* Cc1nc2cc3nn2c(c1[C@H](OC(C)(C)C)C(=O)O)N1CCC(C)(CC1)OCC=CCOc1ccccc1Cc1cnc-3s1 | Satisfied
* Cc1nc2cc3nn2c(c1[C@H](OC(C)(C)C)C(=O)O)N1CCC(C)(CC/C=C\C[C@@H](C)Oc2cc(F)ccc2Cc2cnc-3s2)CC1 | Not satisfied
* Cc1nc2cc3nn2c(c1[C@H](OC(C)(C)C)C(=O)O)N1CCC(C)(CC1)OCCCC[C@@H](C)Oc1ccccc1Cc1cnc-3s1 | Satisfied
* Cc1nc2cc3nn2c(c1[C@H](OC(C)(C)C)C(=O)O)N1CCC(C)(CC1)OCCCCOc1ccccc1Cc1cnc-3s1 | Satisfied
* Cc1nc2cc3nn2c(c1[C@H](OC(C)(C)C)C(=O)O)N1CCC(C)(CC/C=C\CCOc2ccccc2Cc2cnn-3c2)CC1 | Not satisfied
* Cc1nc2cc3nn2c(c1[C@H](OC(C)(C)C)C(=O)O)N1CCC(C)(CC1)OC/C=C/CCc1cccc(c1)Cc1cnc-3s1 | Satisfied
* Cc1nc2cc3nn2c(c1[C@H](OC(C)(C)C)C(=O)O)N1CCC(C)(CCCCCOc2ccccc2Cn2cc-3cn2)CC1 | Satisfied
* Cc1nc2cc3nn2c(c1[C@H](OC(C)(C)C)C(=O)O)N1CCC(C)(CC1)OC/C=C/COc1ccccc1Cc1cnn-3c1 | Satisfied
* Cc1nc2cc3nn2c(c1[C@H](OC(C)(C)C)C(=O)O)N1CCC(C)(CC1)OC/C=C/CCOc1ccccc1Cc1cnn-3c1 | Satisfied
* Cc1nc2cc3nn2c(c1[C@H](OC(C)(C)C)C(=O)O)N1CCC(C)(CC/C=C\CCc2ccc(F)cc2Cc2cnc-3s2)CC1 (single isomer, unassigned) | Not satisfied
* Cc1nc2cc3nn2c(c1[C@H](OC(C)(C)C)C(=O)O)N1CCC(C)(CC1)OC/C=C\CCc1ccccc1Cc1cnc-3s1 (single isomer, unassigned) | Satisfied
* Cc1nc2cc3nn2c(c1[C@H](OC(C)(C)C)C(=O)O)N1CCC(C)(CC1)OCCCCCOc1ccccc1Cc1cnn-3c1 | Satisfied

Where do these numbers come from? They come from patent US9663536B2.
